Test system: NCI-H322M lung
experimental_details: NCI-60 one-dose screen, 48 h (100 = growth as untreated, 0 = no growth, -100 = all killed)
assay_setup: 10 µM unless noted
Protocol: Growth inhibition of the NCI-H322M human Non-Small Cell Lung tumor cell line is measured as a screen for anti-cancer activity. Cells are grown in 96 well plates and exposed to the test compound for 48 hours. Compounds are tested at a single concentration, which is 10^-5 M for most compounds. The reported endpoint is percent growth (GI% or GIPRCNT), where numbers from 0 - 100% represent growth inhibition, and numbers from -100% - 0 represent cell death. […]
About 83,000 compounds went through this panel and 20% of them were active in at least one assay; those are over-represented in the sample as a whole.
I would appreciate it if you labelled entries yes when growth is 20% or higher, otherwise no.

1) CCc1nc2ccc(Cc3ccc(C(=O)NO)cc3)cc2c(=O)n1CCc1ccccc1
no
2) CN1[C@@H]2CC[C@H]1/C(=C\c1ccccc1)C1=C2[C@@H](c2ccccc2)C(C#N)=C(N)O1
yes
3) O=C(Nc1cccc(Cl)c1)Nc1ncc(CCNc2ncnc3ccsc23)s1
yes
4) C/C(=C(/c1ccc(Cl)cc1)c1ccc(OCCN2CCCCCC2)cc1)c1ccccc1
yes
5) C/C(=C(/c1ccc(Cl)cc1)c1ccc(OCCN2CCCCC2)cc1)c1ccccc1
yes
6) O=C(c1ccc(F)c(F)c1Nc1ccc(I)cc1F)N1CC(O)([C@@H]2CCCCN2)C1
no
7) COc1cc(Nc2ncc(F)c(Nc3ccc4c(n3)N(COP(=O)(O)O)C(=O)C(C)(C)O4)n2)cc(OC)c1OC
yes
8) CC(C)Nc1cc(-c2c[nH]c(C(=O)N[C@H](CO)c3cccc(Cl)c3)c2)c(Cl)cn1
no
9) CN(C[C@@H]1COCCO1)S(=O)(=O)Nc1ccc2ccc3ncc(-c4cnn(C)c4)cc3c(=O)c2c1
yes

---

Tested on: HOP-62 NSCLC
experimental_details: NCI-60 one-dose screen, 48 h
assay_setup: 10 µM unless noted
About 83,000 compounds went through this panel and 20% of them were active in at least one assay; those are over-represented in the sample as a whole. The source made the active and inactive calls. The calls were made as follows: active = growth percent below 10; inactive = the rest.
Outcomes: true (1) (active), false (0) (inactive)

1) CCNCCNc1cc(-c2ccc(Cl)c(Cl)c2)c(C#N)c2nc3ccccc3n12
true (1)
2) Cc1cc(NCC(=O)Nc2ccc(-c3nc4ccccc4s3)cc2)no1
false (0)
3) C[C@@H]1COC(Nc2ccc3ncnc(Nc4ccc(OCc5nccs5)c(Cl)c4)c3c2)=N1
false (0)
4) Cn1c(=O)c(F)c(Nc2ccc(I)cc2F)c2c(=O)n(C[C@@H](O)CO)cnc21
false (0)
5) N#CC[C@H](C1CCCC1)n1cc(-c2ncnc3[nH]ccc23)cn1
false (0)
6) COc1ccc(Cc2cc(-c3ccccc3C)n[nH]c2=O)cc1
false (0)
7) O=C(NO)c1ccc(Cn2c(=O)n(-c3ccccc3F)c(=O)c3ccccc32)cc1
true (1)
8) O=C(NCCO)Nc1ccc(-c2nc(N3CCOCC3)c3cccn3n2)cc1
true (1)
9) CC(=O)Oc1ccccc1C(=O)N=C1[Se]CCN1C(=O)c1ccccc1OC(C)=O
true (1)
10) O=C(NC[C@H](O)CO)c1ccncc1Nc1ccc(I)cc1F
false (0)

---

Tested on: MALME-3M melanoma
experimental_details: NCI-60 one-dose screen, 48 h (100 = growth as untreated, 0 = no growth, -100 = all killed)
assay_setup: 10 µM unless noted
This is part of a sample that, as a whole, favours compounds with a hit. Of some 83,000 tested, about 20% had one in any assay.
Output schema: class label derived from growth. Mapping: lo: < -30%; med: ≥ -30% and < 80%; hi: ≥ 80%

1) C=CC(=O)Nc1cc2c(Nc3ccc(F)c(Cl)c3)ncnc2cc1OCCCN1CCOCC1
med
2) O=C(Nc1nc2cccc(-c3ccc(CN4CCS(=O)(=O)CC4)cc3)n2n1)C1CC1
hi
3) Cc1cnc(Nc2ccc(OCCN3CCCC3)cc2)nc1Nc1cccc(S(=O)(=O)NC(C)(C)C)c1
lo
4) COc1ccc(-c2cc3c(C)nc(N)nc3n(C3CCC(OCCO)CC3)c2=O)cn1 (stereo not drawn)
lo
5) CCN1CCN(c2nc(C)cc(N(CCCNc3ccnc4cc(Cl)ccc34)Cc3ccc4c(c3)OCO4)n2)CC1
lo
6) COC(=O)[C@H](Cc1ccccc1)NC(=O)[C@@H](OC)[C@@H]1Cc2cc3cc(OC4CC(OC5CC(O)C(O)C(C)O5)C(O)C(C)O4)c(C)c(O)c3c(O)c2C(=O)[C@H]1OC1CC(OC2CC(OC3CC(C)(O)C(O)C(C)O3)C(O)C(C)O2)C(O)C(C)O1 (stereo partly drawn)
lo
7) N#Cc1ccc(-n2nnc3ccccc32)cc1C#N
hi
8) Cc1cc(NCC(=O)Nc2ccc(-c3nc4ccccc4s3)cc2)no1
hi
9) CN1CCN(CCOc2cc(OC3CCOCC3)c3c(Nc4c(Cl)ccc5c4OCO5)ncnc3c2)CC1
hi
10) COc1cc2c(cc1O)c(=O)n(CCN(C)C)c1c3cc4c(cc3ncc21)OCO4
lo
11) CNC(=O)c1cc(COc2nnc(Nc3ccc(Cl)cc3)c3ccoc23)ccn1
med
12) C=C1C(=O)O[C@H]2[C@H]1CC/C(CNC(=O)c1cc3cc(OC)ccc3[nH]1)=C\CC[C@@]1(C)O[C@@H]21
lo
13) CCN(CC)c1cc2oc3cc(N)cc(=N)c-3nc2cc1C
med
14) O=C1CC(c2ccc(Cl)cc2)c2ncn(-c3cccc(Cl)c3)c2N1 (stereo not drawn)
med
15) C/C(=C(/c1ccc(Cl)cc1)c1ccc(OCCN2CCCC2)cc1)c1ccccc1
med
16) Clc1nc(Cl)c2ncn(C/C=C\Cn3cnc4c(Cl)nc(Cl)nc43)c2n1
lo
